Below, each entry is listed alongside its reported BTX Inhibition.
System: batrachotoxin (BTX) binding site of the sodium channel
Experiment: Affinity to the batrachotoxin (BTX) binding site of the sodium channel
Conditions: rat cerebrocortex synaptosomes, [3H]-batrachotoxinin A20 α-benzoate 10 nM; test concentration not given
Attribute measured: BTX Inhibition

{"Molecule": "CSCCC1NC2(CCN(C(=O)Nc3ccc(OC(F)(F)F)cc3)CC2)N(C)C1=O (stereo not shown) [Example 222]", "Attribute measured": "BTX Inhibition", "Readout number": 48}
{"Molecule": "CSCCC1NC2(CCN(C(=S)Nc3ccc(Cl)cc3)CC2)N(Cc2cccc(C#N)c2)C1=O (stereo not shown) [Example 172]", "Attribute measured": "BTX Inhibition", "Readout number": 59}
{"Molecule": "CC(C)C1NC2(CCN(S(=O)(=O)c3ccc4c(c3)CN(C(=O)C(F)(F)F)CC4)CC2)N(Cc2cccc(C#N)c2)C1=O (stereo not shown) [Example 77]", "Attribute measured": "BTX Inhibition", "Readout number": 36}
{"Molecule": "CSCCC1NC2(CCN(C(=O)NCc3ccc(Cl)c(Cl)c3)CC2)N(Cc2ccccc2C#N)C1=O (stereo not shown) [Example 229]", "Attribute measured": "BTX Inhibition", "Readout number": 69}

====

System: batrachotoxin (BTX) binding site of the sodium channel
Assay: Affinity to the batrachotoxin (BTX) binding site of the sodium channel
Settings: rat cerebrocortex synaptosomes, [3H]-batrachotoxinin A20 α-benzoate 10 nM; test concentration not given
Listing: BTX Inhibition of selected molecules
Attribute measured: BTX Inhibition

{"Molecule": "COC(=O)c1ccccc1S(=O)(=O)N1CCC2(CC1)NC(CCSC)C(=O)N2Cc1ccc(F)cc1 (stereo not shown) [Example 23]", "Tested target": "batrachotoxin (BTX) binding site of the sodium channel", "Readout number": 40}
{"Molecule": "CCOC(=O)CN1C(=O)C(Cc2ccccc2)NC12CCN(S(=O)(=O)c1cc([N+](=O)[O-])ccc1C)CC2 (stereo not shown) [Example 46]", "Tested target": "batrachotoxin (BTX) binding site of the sodium channel", "Readout number": 30}
{"Molecule": "CSCCC1NC2(CCN(S(=O)(=O)c3ccccc3C(F)(F)F)CC2)N(Cc2ccc(F)cc2)C1=O (stereo not shown) [Example 25]", "Tested target": "batrachotoxin (BTX) binding site of the sodium channel", "Readout number": 57}
{"Molecule": "Cc1cc(C)c(S(=O)(=O)N2CCC3(CC2)NCC(=O)N3Cc2cccc(C#N)c2)c(C)c1 [Example 59]", "Tested target": "batrachotoxin (BTX) binding site of the sodium channel", "Readout number": 50}

====

Target: 5-HT transporter (Rattus norvegicus)
Construct: from tissue; host or cells: rat brain synaptosomes (marrow/medulla and pons), P2 fraction
Sequence (P31652 whole entry): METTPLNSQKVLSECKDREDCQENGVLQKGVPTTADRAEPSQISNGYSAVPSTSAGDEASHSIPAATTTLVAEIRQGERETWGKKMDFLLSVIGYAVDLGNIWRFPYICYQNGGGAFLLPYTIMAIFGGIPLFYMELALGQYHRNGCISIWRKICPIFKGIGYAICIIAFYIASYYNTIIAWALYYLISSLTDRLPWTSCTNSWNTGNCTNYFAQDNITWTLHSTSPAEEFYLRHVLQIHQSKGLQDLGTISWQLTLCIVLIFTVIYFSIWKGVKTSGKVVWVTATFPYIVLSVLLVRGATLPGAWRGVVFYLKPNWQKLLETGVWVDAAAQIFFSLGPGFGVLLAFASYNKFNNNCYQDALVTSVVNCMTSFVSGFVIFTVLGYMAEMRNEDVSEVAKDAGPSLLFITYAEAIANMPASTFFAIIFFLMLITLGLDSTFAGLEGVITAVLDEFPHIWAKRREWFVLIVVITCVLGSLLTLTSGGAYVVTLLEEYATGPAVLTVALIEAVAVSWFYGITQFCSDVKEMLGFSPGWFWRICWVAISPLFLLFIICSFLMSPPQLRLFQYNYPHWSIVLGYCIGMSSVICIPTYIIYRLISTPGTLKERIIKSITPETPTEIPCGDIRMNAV
Assay: Inhibition of 5-HT uptake in synaptosomes
Type: biochemical
Conditions: rat, 1 μM
Attribute measured: Uptake_5-HT, rat, 1 μM, % inhibition (%)

{"Compound": "Cc1cc(C)c(S(=O)(=O)N2CCC3(CC2)NCC(=O)N3Cc2cccc(C#N)c2)c(C)c1", "Attribute measured": "Uptake_5-HT, rat, 1 μM, % inhibition", "Unit abbreviation": "%", "Readout number": 50}
{"Compound": "CSCCC1NC2(CCN(C(=O)Nc3ccc(Cl)c(C(F)(F)F)c3)CC2)N(Cc2ccccc2)C1=O (stereo not shown)", "Attribute measured": "Uptake_5-HT, rat, 1 μM, % inhibition", "Unit abbreviation": "%", "Readout number": 45}
{"Compound": "C=CCN1C(=O)C(C(C)C)NC12CCN(C(=S)Nc1cc(F)ccc1F)CC2 (stereo not shown)", "Attribute measured": "Uptake_5-HT, rat, 1 μM, % inhibition", "Unit abbreviation": "%", "Readout number": 57}
{"Compound": "CSCCC1NC2(CCN(C(=O)Nc3cccc(F)c3)CC2)N(Cc2ccc3ccccc3c2)C1=O (stereo not shown)", "Attribute measured": "Uptake_5-HT, rat, 1 μM, % inhibition", "Unit abbreviation": "%", "Readout number": 63}
